# system: hCRTH2 (Homo sapiens, UniProt Q9Y5Y4)
# Construct: expressed in transfected cells; host or cells: HEK (human embryonic kidney) cells expressing hCRTH2; membrane preparation
# Sequence (Q9Y5Y4 1-395): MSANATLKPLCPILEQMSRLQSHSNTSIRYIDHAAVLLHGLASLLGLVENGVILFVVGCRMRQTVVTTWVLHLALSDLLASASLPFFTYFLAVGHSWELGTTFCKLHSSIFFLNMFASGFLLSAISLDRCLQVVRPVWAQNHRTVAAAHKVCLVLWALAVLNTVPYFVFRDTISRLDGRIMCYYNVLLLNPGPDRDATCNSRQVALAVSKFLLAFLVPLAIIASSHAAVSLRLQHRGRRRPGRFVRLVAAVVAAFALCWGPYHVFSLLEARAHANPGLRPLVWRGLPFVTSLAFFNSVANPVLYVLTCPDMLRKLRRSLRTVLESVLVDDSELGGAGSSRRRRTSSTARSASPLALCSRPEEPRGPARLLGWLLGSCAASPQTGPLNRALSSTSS
# experimentDescription: Radioligand binding assay ([3H]PGD2 competition, HEK-hCRTH2 membranes)
# setupConditions: [3H]PGD2 competition, Table B
quantityKind: Ki

[
  {
    "compound": "C[C@@H](CCc1nc2cc(C(=O)N(C)Cc3ccc(F)cc3)ccc2nc1-c1ccccc1)CC(=O)O",
    "testResult": "20.1 to 200 nM"
  }
]

Input: Which Ki value belongs to Cn1ccnc1C1CCCCN1C(=O)c1ccc2nc(-c3ccc(Cl)cc3)c(CCCCC(=O)O)nc2c1 (centres unmarked) ?
Output: 20.1 to 200 nM

Input: Which measured Ki value corresponds to O=C(N[C@@H](c1ccc(Cl)cc1)C(F)(F)F)c1ccc2nc(-c3ccc(Cl)cc3)c(CC3CCC(C(=O)O)C3)nc2c1 (some centres unmarked) ?
Output: 2.1 to 20 nM

Input: Quick one: Ki of O=C(O)CCCCc1nc2cc(C(=O)N3CCCC3c3nccs3)ccc2nc1-c1ccc(Cl)cc1 (centres unmarked) ?
Output: 20.1 to 200 nM

* * *

# system: hCRTH2 (Homo sapiens, UniProt Q9Y5Y4)
# Construct: expressed in transfected cells; host or cells: HEK (human embryonic kidney) cells expressing hCRTH2; membrane preparation
# Sequence (Q9Y5Y4 1-395): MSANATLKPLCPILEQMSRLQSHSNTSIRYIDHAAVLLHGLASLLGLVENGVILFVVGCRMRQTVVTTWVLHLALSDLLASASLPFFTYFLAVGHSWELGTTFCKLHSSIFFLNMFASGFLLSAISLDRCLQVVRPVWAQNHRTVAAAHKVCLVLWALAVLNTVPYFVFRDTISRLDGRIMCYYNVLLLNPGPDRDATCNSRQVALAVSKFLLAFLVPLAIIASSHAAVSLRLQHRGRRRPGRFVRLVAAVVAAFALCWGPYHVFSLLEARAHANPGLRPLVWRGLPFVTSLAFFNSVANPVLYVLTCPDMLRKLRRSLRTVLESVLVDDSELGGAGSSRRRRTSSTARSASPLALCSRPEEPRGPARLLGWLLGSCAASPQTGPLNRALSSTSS
# experimentDescription: Radioligand binding assay ([3H]PGD2 competition, HEK-hCRTH2 membranes)
# setupConditions: [3H]PGD2 binding, rated A-E (Table A)
Recorded Ki for the following compounds

Please review the following examples before continuing.
[
  {
    "compound": "O=C(O)Cc1ccc(CCc2nc3cc(C(=O)N4CCC(c5ccccc5)CC4)ccc3nc2-c2ccc(Cl)cc2)cc1 [compound 158]",
    "testResult": "201 to 700 nM"
  },
  {
    "compound": "C[C@@H]1CN(c2ccccc2)CCN1C(=O)c1ccc2nc(-c3ccccc3)c(NCCCC(=O)O)nc2c1 [44N]",
    "testResult": "2.1 to 20 nM"
  }
]

Input: So what does the record say about Ki for Cn1cc(-c2nc3ccc(C(=O)N4CCC(c5ccccc5)CC4)cc3nc2CCCCC(=O)O)cn1 [26T] ?
Output: 2.1 to 20 nM

Input: Param item = C[C@@H](NC(=O)c1ccc2nc(-c3ccc(Cl)cc3)c(CCCCC(=O)O)nc2c1)c1ccc(Cl)cc1 [16AD] ; retrieve measured Ki.
Output: 0.1 to 2 nM

Input: Entry C[C@@H](NC(=O)c1ccc2nc(-c3ccc(Cl)cc3)c(CCCCC(=O)O)nc2c1)c1ccccc1 [16AL] has what Ki?
Output: 0.1 to 2 nM

Input: Look at this compound and give its reported Ki. COc1cc(C(F)(F)F)ccc1-c1nc2ccc(C(=O)N3CCC(c4ccccc4)CC3)cc2nc1CCCCC(=O)O [26V]
Output: 0.1 to 2 nM

Input: # lookup: Ki of C[C@@H](NC(=O)c1ccc2nc(-c3ccc(F)cc3)c(CCCCC(=O)O)nc2c1)c1ccc(F)cc1 [compound 110]
Output: 2.1 to 20 nM

Input: Please look up its Ki: O=C(O)CCCCc1nc2cc(C(=O)NCc3ccncc3)ccc2nc1-c1ccc(C(F)(F)F)cc1 [3AC]
Output: 2.1 to 20 nM

* * *

# system: hCRTH2 (Homo sapiens, UniProt Q9Y5Y4)
# Construct: expressed in transfected cells; host or cells: HEK (human embryonic kidney) cells expressing hCRTH2; membrane preparation
# experimentDescription: Radioligand binding assay ([3H]PGD2 competition, HEK-hCRTH2 membranes)
# setupConditions: [3H]PGD2 binding, rated A-E (Table A)
quantityKind: Ki

[
  {
    "compound": "O=C(O)CCCCc1nc2cc(C(=O)NCc3ccccc3)ccc2nc1-c1ccccc1 [15Z]",
    "Ki": "0.1 to 2 nM"
  },
  {
    "compound": "CC(CCCc1nc2cc(C(=O)NC3Cc4ccccc4C3)ccc2nc1-c1ccc(Cl)cc1)C(=O)O (centres unmarked)",
    "Ki": "2.1 to 20 nM"
  },
  {
    "compound": "CC(CCCc1nc2cc(C(=O)NCc3cccc(Cl)c3)ccc2nc1-c1ccc(C(F)(F)F)cc1)C(=O)O (centres unmarked) [18D]",
    "Ki": "2.1 to 20 nM"
  },
  {
    "compound": "N#Cc1ccc(-c2nc3ccc(C(=O)N4CCC(c5ccccc5)CC4)cc3nc2CCCCC(=O)O)cc1 [26P]",
    "Ki": "2.1 to 20 nM"
  },
  {
    "compound": "O=C(O)CCCCc1nc2cc(C(=O)N3CCN(c4ccc(Cl)cc4)CC3)ccc2nc1-c1ccc(Cl)cc1",
    "Ki": "0.1 to 2 nM"
  },
  {
    "compound": "C[C@@H](NC(=O)c1ccc2nc(-c3ccc(Cl)cc3)c(CCCCC(=O)O)nc2c1)c1cccc(Cl)c1",
    "Ki": "0.1 to 2 nM"
  },
  {
    "compound": "O=C(O)CCCCc1nc2cc(C(=O)N3CCC(c4ccccc4)CC3)ccc2nc1-c1ccccc1Cl [26L]",
    "Ki": "2.1 to 20 nM"
  },
  {
    "compound": "O=C(O)CCCCc1nc2cc(C(=O)N3CCC[C@H](c4ccccc4)C3)ccc2nc1-c1ccc(Cl)cc1 [16N]",
    "Ki": "0.1 to 2 nM"
  },
  {
    "compound": "N#Cc1cccc(C2CN(C(=O)c3ccc4nc(-c5ccccc5)c(CCCCC(=O)O)nc4c3)C2)c1",
    "Ki": "2.1 to 20 nM"
  },
  {
    "compound": "O=C(O)CCCCc1nc2cc(C(=O)NCc3ccccn3)ccc2nc1-c1ccc(C(F)(F)F)cc1",
    "Ki": "2.1 to 20 nM"
  }
]

Input: Param readout= Ki; system= hCRTH2 (Homo sapiens, UniProt Q9Y5Y4); entry= O=C(O)CCCCc1nc2cc(C(=O)NCc3ccc(C(F)(F)F)nc3)ccc2nc1-c1ccc(C(F)(F)F)cc1 ; returns value.
Output: 2.1 to 20 nM

Input: Fill in the recorded Ki for this compound, with hCRTH2 (Homo sapiens, UniProt Q9Y5Y4) as test system: N#CC1(c2ccccc2)CCN(C(=O)c2ccc3nc(-c4ccc(F)cc4)c(CCCCC(=O)O)nc3c2)CC1
Output: 2.1 to 20 nM

* * *

# system: hCRTH2 (Homo sapiens)
# Construct: expressed in transfected cells; host or cells: HEK (human embryonic kidney) cells expressing hCRTH2; membrane preparation
# experimentDescription: Radioligand binding assay ([3H]PGD2 competition, HEK-hCRTH2 membranes)
# setupConditions: [3H]PGD2 competition, Table B
quantityKind: Ki

[
  {
    "molecule": "O=C(O)CCCCc1nc2cc(C(=O)N3CCC(n4ccc5ccccc54)CC3)ccc2nc1-c1ccc(Cl)cc1 [compound 338]",
    "Ki": "2.1 to 20 nM"
  },
  {
    "molecule": "O=C(O)CCCCc1nc2cc(C(=O)NC3CCCOc4ccccc43)ccc2nc1-c1ccc(Cl)cc1 (stereo not shown) [compound 579]",
    "Ki": "2.1 to 20 nM"
  },
  {
    "molecule": "CC(CCCc1nc2cc(C(=O)N[C@@H]3CCc4cc(Cl)ccc43)ccc2nc1-c1ccc(F)cc1)C(=O)O (stereo partly shown) [compound 456]",
    "Ki": "2.1 to 20 nM"
  },
  {
    "molecule": "COc1cccc(C2CN(C(=O)c3ccc4nc(-c5ccccc5)c(CCCCC(=O)O)nc4c3)C2)c1 [compound 390]",
    "Ki": "0.1 to 2 nM"
  },
  {
    "molecule": "O=C(O)CCCCc1nc2cc(C(=O)N3CC(F)(c4ccccc4)C3)ccc2nc1-c1ccc(Cl)cc1 [compound 328]",
    "Ki": "2.1 to 20 nM"
  },
  {
    "molecule": "C[C@@H](CCc1nc2cc(C(=O)N[C@H](C)c3ccc(F)cc3)ccc2nc1-c1ccccc1)CC(=O)O [compound 287]",
    "Ki": "20.1 to 200 nM"
  }
]

// next item, Ki requested
Input: Would you mind telling me what Ki value was observed for CCCCN(CCC)C(=O)c1ccc2nc(-c3ccc(Cl)cc3)c(CCCCC(=O)O)nc2c1 [compound 611] ?
Output: 2.1 to 20 nM
